Tested on: SW613
Test: Growth of SW613 human mammary tumor cell culture was monitored in the presence after 48 hr
Type: functional
Parameters: concentration or dose not given beside the values
MEASURED METRIC: Control (%)
Only the number, expressed in %, is required.

stdin: Entry OC1O[C@@H](CF)[C@@H](O)[C@@H](O)[C@@H]1O (some centres not stated) : reported Control = ?
stdout: 102

stdin: Can you handle OC1O[C@@H](CI)[C@@H](O)[C@@H](O)[C@@H]1O (some centres not stated) next?
stdout: 93

stdin: Can you handle CC1O[C@@H](O)C(I)[C@@H](O)[C@@H]1O (some centres not stated) next?
stdout: 69

stdin: Can you handle CC1O[C@@H](O)C(Br)[C@@H](O)[C@@H]1O (some centres not stated) next?
stdout: 95

stdin: Can you handle OC1O[C@@H](CBr)[C@@H](O)[C@@H](O)[C@@H]1O (some centres not stated) next?
stdout: 98

stdin: Can you handle CC1O[C@@H](O)C(Cl)[C@@H](O)[C@@H]1O (some centres not stated) next?
stdout: 83

stdin: Can you handle OC1O[C@@H](CCl)[C@@H](O)[C@@H](O)[C@@H]1O (some centres not stated) next?
stdout: 113

---

Task for the reader: assign each of the following compounds its reported Incorporation.
System: SW613
Experiment: The ability to inhibit incorporation of L-leucine into macromolecule components of SW613 human mammary tumor cells was measured after 5 hr
Format: functional
Give your result as the value with the unit written after it.

stdin: Entry OC1O[C@@H](CCl)[C@@H](O)[C@@H](O)[C@@H]1O (some centres not stated) : reported Incorporation = ?
stdout: 81%

stdin: Can you handle OC1O[C@@H](CBr)[C@@H](O)[C@@H](O)[C@@H]1O (some centres not stated) next?
stdout: 79%

stdin: Can you handle CC1O[C@@H](O)C(Br)[C@@H](O)[C@@H]1O (some centres not stated) next?
stdout: 106%

stdin: Can you handle CC1O[C@@H](O)C(Cl)[C@@H](O)[C@@H]1O (some centres not stated) next?
stdout: 84%

stdin: Can you handle CC1O[C@@H](O)C(I)[C@@H](O)[C@@H]1O (some centres not stated) next?
stdout: 3%

stdin: Can you handle OC1O[C@@H](CI)[C@@H](O)[C@@H](O)[C@@H]1O (some centres not stated) next?
stdout: 99%

stdin: Can you handle OC1O[C@@H](CF)[C@@H](O)[C@@H](O)[C@@H]1O (some centres not stated) next?
stdout: 66%

---

Tested on: P388
Assay: The ability to inhibit incorporation of galactose into macromolecule components of P288 lymphoma was measured
Type: functional, Mus musculus
MEASURED METRIC: Incorporation (%)
Only the number, expressed in %, is required.

stdin: Entry CS(=O)(=O)C[C@H]1OC(O)[C@H](O)[C@@H](O)[C@H]1O (some centres undefined) : reported Incorporation = ?
stdout: 72

stdin: Can you handle OC1O[C@H](CBr)[C@H](O)[C@H](O)[C@H]1O (some centres undefined) next?
stdout: 70

stdin: Can you handle OC1O[C@H](CCl)[C@H](O)[C@H](O)[C@H]1O (some centres undefined) next?
stdout: 87

stdin: Can you handle OC1O[C@H](CI)[C@H](O)[C@H](O)[C@H]1O (some centres undefined) next?
stdout: 71
